tested on: recombinant human laminin isoforms (–111, –211, –332, –411, –421, –511, and –521); test: ELISA: binding of full-length laminin isoforms to absorbed GFs and CXCL chemokines; conditions: 50 nM GF coated, 10 nM laminin; signals greater than 0.1 indicate binding; n = 4
OBSERVED PROPERTY: binding to all tested laminin isoforms (ELISA, A450 nm)

Please review the entries below; each comes with its answer.
* PlGF-2: placental growth factor (PlGF)-2, PeproTech (protein) LPAVPPQQWALSAGNGSSEVEVVPFQEVWGRSYCRALERLVDVVSEYPSEVEHMFSPSCVSLLRCTGCCGDENLHCVPVETANVTMQLLKIRSGDRPSYVELTFSQHVRCECRPLREKMKPERRRPKGRGKRRREKQRPTDCHLCGDAVPRR | bound
* BMP-7: bone morphogenetic protein, PeproTech, produced in eukaryotic cells (protein) STGSKQRSQNRSKTPKNQEALRMANVAENSSSDQRQACKKHELYVSFRDLGWQDWIIAPEGYAAYYCEGECAFPLNSYMNATNHAIVQTLVHFINPETVPKPCCAPTQLNAISVLYFDDSSNVILKKYRNMVVRACGCH | not
* FGF-7: fibroblast growth factor, PeproTech (protein) CNDMTPEQMATNVNCSSPERHTRSYDYMEGGDIRVRRLFCRTQWYLRIDKRGKVKGTQEMKNNYNIMEIRTVAVGIVAIKGVESEFYLAMNKEGKLYAKKECNEDCNFKELILENHYNTYASAKWTHNGGEMFVALNQKGIPVRGKKTKKEQKTAHFLPMAIT | bound
* FGF-10: fibroblast growth factor, PeproTech (protein) QALGQDMVSPEATNSSSSSFSSPSSAGRHVRSYNHLQGDVRWRKLFSFTKYFLKIEKNGKVSGTKKENCPYSILEITSVEIGVVAVKAINSNYYLAMNKKGKLYGSKEFNNDCKLKERIEENGYNTYASFNWQHNGRQMYVALNGKGAPRRGQKTRRKNTSAHFLPMVVHS | bound

IN: Please report the recorded binding to all tested laminin isoforms (ELISA, A450 nm) for PDGF-CC: platelet-derived growth factor, PeproTech (protein) VVDLNLLTEEVRLYSCTPRNFSVSIREELKRTDTIFWPGCLLVKRCGGNCACCLHNCNECQCVPSKVTKKYHEVLQLRPKTGVRGLHKSLTDVALEHHEECDCVCRGSTGG .
OUT: bound
